Sourced from patent US20250270319A1

Quick reference for Fold increase in potency compared to 6C7H5 among some binders
Molecular target: human CD33 on primary human dendritic cells (human, UniProt P20138 18-364)
Sequence (P20138 18-364): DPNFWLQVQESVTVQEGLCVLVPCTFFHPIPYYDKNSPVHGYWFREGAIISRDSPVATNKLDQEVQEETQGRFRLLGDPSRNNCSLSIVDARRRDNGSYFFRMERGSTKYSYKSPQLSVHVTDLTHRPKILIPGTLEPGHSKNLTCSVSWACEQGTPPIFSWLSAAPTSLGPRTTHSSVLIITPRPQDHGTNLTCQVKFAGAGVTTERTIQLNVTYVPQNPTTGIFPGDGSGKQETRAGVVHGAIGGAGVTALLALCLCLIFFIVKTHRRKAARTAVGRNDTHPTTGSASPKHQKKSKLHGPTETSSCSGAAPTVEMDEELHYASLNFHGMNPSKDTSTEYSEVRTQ
Assay: cell-based or functional assay
Kindly answer with a numeric value in fold, unit omitted.

Q: Request the reported Fold increase in potency compared to 6C7H5 associated with anti-CD33 antibody 6C7H12 (antibody, V domains shown, VH/VL only) VH: EVQLVESGGGLVQPGGSLRLSCAGSGFTFSNYGMNWVRQAPGKGLEWVAEIRLKSNNYVTNYAASVKGRFTISRDDSKNSVYLQMNSLKTEDTGVYYCTRAGYYVPFAYWGQGTLVTVSS VL: QLVLTQSPSASASLGASVKLTCTLSSQHSTYTIEWYQQQPEKGPRYLMELKKEGSHSTGDGIPDRFSGSSSGAERYLTISSLQSEDEADYYCGVGDTIKEQFVYVFGGGTKLTVL
Result: 0.3

Q: Request the reported Fold increase in potency compared to 6C7H5 associated with anti-CD33 antibody 6C7H28 (antibody, V domains shown, VH/VL only) VH: EVQLVESGGGLVQPGGSLRLSCAGSGFTFSDYSMNWVRQAPGKGLEWVAEIRLKSNNYVTNYAASVKGRFTISRDDSKNSVYLQMNSLKTEDTGVYYCTRAGYYVPFAYWGQGTLVTVSS VL: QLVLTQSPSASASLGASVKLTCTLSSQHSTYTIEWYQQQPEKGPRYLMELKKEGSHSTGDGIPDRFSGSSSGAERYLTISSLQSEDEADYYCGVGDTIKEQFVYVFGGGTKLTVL
Result: 0.3
